runDescription: Selectivity index, ratio of IC50 for MAO-B in bovine brain mitochondria to IC50 for MAO-A in rat liver mitochondria
We use 8000 as the dividing line for Selectivity Index: on or above the line is 1, below is -1.

Recorded results for 5 molecules are shown here.
COC(=O)CCCCCNC(=O)c1ccc(NC(=O)C(=O)c2ccccc2NC(C)=O)cc1 : 1
COC(=O)CCCNC(=O)c1ccc(NC(=O)C(=O)c2ccccc2NC(C)=O)cc1 : 1
COC(=O)CCNC(=O)C(=O)c1ccccc1NC(C)=O : 1
COC(=O)[C@H](CC(C)C)NC(=O)C(=O)c1ccccc1NC(C)=O : -1
COC(=O)C[C@H](NC(=O)c1ccc(NC(=O)C(=O)c2ccccc2NC(C)=O)cc1)C(=O)OC : 1

Has `COC(=O)[C@@H](NC(=O)c1ccc(NC(=O)C(=O)c2ccccc2NC(C)=O)cc1)C(C)C` a recorded Selectivity Index greater than or equal to 8000?
1
